Tested on: COLO 205 colon
Protocol Summary: NCI tumour cell line growth inhibition, 48 h
Endpoint Name: TGI

| Compound | Tested System | Result |
| --- | --- | --- |
| CC(C)CC(NC(=O)C(O)C(N)Cc1ccccc1)C(=O)O (stereo not drawn) | COLO 205 colon | > 100 µM |
| Cc1cccc(-c2nc(=S)[nH][nH]2)c1 | COLO 205 colon | > 100 µM |
| Cc1ccc(N=NC(=Nc2ccc(F)cc2)c2ccc(N(CCC#N)CCC#N)cc2)cc1 | COLO 205 colon | > 100 µM |
| CCC(=O)N1C(=S)SC[C@H]1C(=O)OC | COLO 205 colon | > 100 µM |
| CCn1c(-c2nonc2N)nc2cnc(Oc3cccc(NC(=O)c4ccc(OCCN5CCOCC5)cc4)c3)cc21 | COLO 205 colon | > 25 µM |
| COc1cc(O)c2c(=O)c3cccc(C)c3[nH]c2c1 | COLO 205 colon | > 10 µM |
| COc1ccc(C2c3cc4c(cc3OC(N3CCOCC3)C2C)OCO4)cc1OC (stereo not drawn) | COLO 205 colon | > 44.2 µM |
| COc1ccc(/C=C2\C(=O)N(C(=O)c3ccc(NC(C)=O)cc3)N=C2C)cc1OC | COLO 205 colon | > 100 µM |
| CC1=C[C@H](C[C@]2(C)c3c(c4c(C)cccc4oc3=O)O[C@@H]2C)OC1=O | COLO 205 colon | > 100 µM |
| CC1OC1C(=O)P(=O)(O)O (stereo not drawn) | COLO 205 colon | > 100 µM |
| CN(C)c1ccc(-c2c(C#N)c(-c3ccccc3)n(NS(=O)(=O)c3ccccc3)c(=O)c2C#N)cc1 | COLO 205 colon | > 100 µM |
| COc1cc(OC)c(OC)cc1/C=C/c1ccccn1 | COLO 205 colon | > 10 µM |
| CC(C)OC(=O)Nc1c([N+](=O)[O-])cc(C(F)(F)F)cc1[N+](=O)[O-] | COLO 205 colon | > 100 µM |
| CC(=O)Oc1ccc2c(c1)O/C(=C\c1ccc(N(C)C)cc1)C2=O | COLO 205 colon | > 100 µM |
| CC1=NC2(C(=O)O)C3(C(=O)O)N=C(C)OC3(C(F)(F)F)C2(C(F)(F)F)O1 (stereo not drawn) | COLO 205 colon | > 100 µM |
| COc1ccc(OC)c([N+](=O)[O-])c1-c1nc2sc(Cl)cn2c1/C=N/N=C(N)N | COLO 205 colon | > 100 µM |
| CC(Nc1cccc(Cl)c1)c1ccncc1 (stereo not drawn) | COLO 205 colon | > 100 µM |
| Fc1ccc(F)c(C=NC23CC4CC(CC(C4)C2)C3)c1 | COLO 205 colon | > 10 µM |

---

Test system: A549 NSCLC
Protocol Summary: NCI tumour cell line growth inhibition, 48 h
Endpoint Name: TGI

| Smi | Result |
| --- | --- |
| Nc1nc(N)c2cc(S(=O)(=O)c3cccc(C(F)(F)F)c3)ccc2n1 | > 100 µM |
| CCOc1cc(/C=C/C(=O)CC(=O)/C=C/c2ccc(OC(=O)CNc3nc4ccc(OC)cc4s3)c(OCC)c2)ccc1OC(=O)CNc1nc2ccc(OC)cc2s1 | 31 µM |
| C[C@]12C(=O)OC[C@H](c3ccccc3)N1C(=O)N(Cc1ccccc1)[C@@H]2CO | > 100 µM |
| C/C(=C1\C(=O)Nc2ccccc21)c1cccc(/C(C)=C2/C(=O)Nc3ccccc32)n1 | > 100 µM |

---

Test system: SF-268 CNS
Protocol Summary: NCI tumour cell line growth inhibition, 48 h

| Compound | TGI |
| --- | --- |
| O=C1c2cccnc2S(=O)(=O)N1c1ccc(Br)cc1 | > 100 µM |
| Cc1cccc(C)c1NC(=S)N/C=C(\C#N)C(N)=O | > 100 µM |
| CCOc1cc2c(cc1OC)c[n+](C)c1c3cc(OC)c(OC)cc3ccc21 | > 100 µM |
| C[C@]12CC[C@H]3[C@@H](CC=C4C[C@@H](N5CCCC5)CC[C@@]43C)[C@@H]1C/C(=C\c1ccc([N+](=O)[O-])cc1)[C@@H]2O | 40.1 µM |
| COc1nc2ncc([C@@H](OC(C)=O)[C@@H](COC(C)=O)OC(C)=O)nc2c(=O)n1C | > 100 µM |
| CC(=O)Oc1ccc2c(c1)O/C(=C\c1ccc(N(C)C)cc1)C2=O | > 100 µM |
| CN(C)C(=C1C(Br)=C(Br)C(Br)=C1Br)N(C)C | > 100 µM |
| COc1cc2c(cc1OCCCCCOc1ccc(-c3nc4ccccc4s3)cc1)N=C[C@@H]1CCCN1C2=O | 31.6 µM |
| O=c1c(-c2cccc3ccccc23)c(-c2cccc3ccccc23)c1=O | > 53.7 µM |
| CN(C)CC1CCC/C(=C\c2ccc(Cl)c(Cl)c2)C1=O (stereo not drawn) | 8.88 µM |
| COC(=O)C12CCCN1CCC2 | > 100 µM |
| COC(=O)C1=C(C(=O)OC)C23CC4CCC2(C(=O)C1O3)C4(C)C (stereo not drawn) | > 100 µM |
| COc1ccc(C(O)C(c2ccc(OCc3ccccc3)cc2)c2ccc(OCc3ccccc3)cc2)cc1 (stereo not drawn) | > 100 µM |
| c1ccc(C/C(=N\Nc2nc3ccccc3[nH]2)c2ccccn2)cc1 | 12 µM |
| CCOC(=O)CCCN | > 100 µM |
| O=c1oc2ccccc2cc1P(=O)(O)O | > 100 µM |
| CCCCCCCCCCCCCOCCOCCOCCCCC(O)CCCCCCCCCC1=C[C@H](C)OC1=O (stereo partly drawn) | 82.2 µM |
| O=C(O)c1ccccc1NS(=O)(=O)c1ccc(Cl)cc1 | > 100 µM |
| CC(C)CC(NC(=O)C(O)C(N)Cc1ccccc1)C(=O)O (stereo not drawn) | > 100 µM |
| Cc1ccc2[nH]c3c(c2c1)C1CCC(C(C)(C)C)CC1C1C(=O)N(c2ccc(Oc4ccccc4)cc2)C(=O)C31 (stereo not drawn) | 41.6 µM |
| CC(C)(C)OC(=O)C1C(=O)NC(=O)CC1C(OCc1ccccc1)C(OCc1ccccc1)C(COCc1ccccc1)OCc1ccccc1 (stereo not drawn) | > 100 µM |
| CC(C)(Sc1cc(C(C)(C)C)c(O)c(C(C)(C)C)c1)Sc1cc(C(C)(C)C)c(O)c(C(C)(C)C)c1 | > 100 µM |
| COc1ccc(C2c3cc4c(cc3OC(N3CCOCC3)C2C)OCO4)cc1OC (stereo not drawn) | > 100 µM |
| c1ccc2[nH]c(-c3ccc(Nc4nc(N5CCCC5)nc5[nH]ncc45)cc3)nc2c1 | 2.42 µM |
| O=C(Nc1ccccc1/C=C/c1n[nH]c2ccccc12)c1ccccc1 | 17.3 µM |
| CCOC(=O)N1CCC2(CC1)C[C@](Sc1ccccc1)(C(C)=O)[C@H](C)O2 | > 100 µM |
| Cc1ccc(N=NC(=Nc2ccc(F)cc2)c2ccc(N(CCC#N)CCC#N)cc2)cc1 | > 100 µM |
| CCO/C(O)=c1/s/c(=C2/SC(=S)N(c3ccc(C)cc3)C2=O)n(-c2ccccc2)c1=N | > 95.8 µM |
| COc1ccc(Nc2nc3ccccc3nc2-c2cccs2)cc1OC | > 10 µM |
| C/C(=N/NC(=S)N1CCCCCC1)c1cccc(/C(C)=N\NC(=S)N2CCCCCC2)n1 | 9.46 µM |
| CN(C)N1C(=C(C#N)C#N)C(c2ccccc2)CC1C#N (stereo not drawn) | > 100 µM |
| CCN1CC2=C(OC(N)=C(C#N)C2c2ccc(Cl)cc2)/C(=C/c2ccc(Cl)cc2)C1 (stereo not drawn) | 49.6 µM |
| COC(=O)/C(=C(/C)c1ccco1)P(=O)(OC)OC | > 100 µM |

---

Listed here: items and their measured TGI.
Tested on: OVCAR-3 ovarian
Protocol Summary: NCI tumour cell line growth inhibition, 48 h

| Compound | TGI |
| --- | --- |
| COc1ccc(-c2nn3ncccc3c2-c2ccnc(Nc3ccc(F)c(F)c3)n2)cc1 | > 25 µM |
| CCC(=O)N1C(=S)SC[C@H]1C(=O)OC | > 100 µM |
| CN(C)C(=C1C(Br)=C(Br)C(Br)=C1Br)N(C)C | > 100 µM |
| O=c1oc2ccccc2cc1P(=O)(O)O | > 100 µM |
| CC(Nc1cccc(Cl)c1)c1ccncc1 (stereo not given) | > 100 µM |

---

Tested on: DMS 114 small cell lung
Protocol Summary: NCI tumour cell line growth inhibition, 48 h
Endpoint Name: TGI

| Compound | Result |
| --- | --- |
| COc1ccc(/C=C2\C(=O)N(C(=O)c3ccc(NC(C)=O)cc3)N=C2C)cc1OC | > 100 µM |
| CN(c1ccccc1)c1nc(=[N+](C)C)ss1 | > 100 µM |
| COC1C(OC(=O)/C=C/C=C/C=C/C=C/C(=O)O)CCC2(CO2)C1C1(C)OC1CC=C(C)C (stereo not drawn) | > 100 µM |
